experimental-target: T1, soluble human BLyS (human, UniProt Q9Y275 134-285)
T1 construct: also called hBLyS; human BAFF (BLyS)
assay-name: Biacore, antibody captured on chip, BLyS injected, 1:1 model, 25 C
Property: koff; scope: individual binders
Kindly provide the numeric value in s⁻¹ only, without the unit symbol.

Query: koff; subject: 5B7 IgG1 F243A/V264A double mutein expressed in Pichia pastoris (antibody, V domains shown, IgG1 F243A/V264A (EU) double mutein, alpha-2,6-sialylated, from glycoengineered Pichia pastoris; also called 5B7-DM; 5B7-DM Pichia) VH: QVQLVQSGAEVKKPGASVKVSCKASGGTFSSYAISWVRQAPGQGLEWMGGIIPIFGTANYAQKFQGRVTITADKSTSTAYMELSSLRSEDTAVYYCARVDYDILTGYYMGYFDYWGQGTLVTVSS VL: DIVMTQSPATLSLSPGERATLSCRASQSVSSYLAWYQQKPGQAPRLLIYDASNRATGIPARFSGSGSGTDFTLTISSLEPEDFAVYYCQQRSNWPITFGQGTRLEIKR 3.5e-05
